assay_info: Inhibition of rice alpha-glucosidase using 10 mM p-nitrophenyl-alpha-D-glucopyranoside as substrate
Design: species or system Oryza sativa
readout: IC50 (nM)
Supply the numeric figure in nM, leaving out any unit text.

// query Retrieve IC50 measured for OCCN1C[C@H](O)[C@@H](O)[C@H](O)[C@H]1CO and print it.
// result 100

###

assay_info: Inhibition of bovine liver beta-glucosidase using 10 mM p-nitrophenyl-[…]-D-glucopyranoside as substrate
Set-up: species or system Bos taurus
pIC50: −log10 of the molar value.
# binarize pIC50: threshold 4 inclusive, high side fulfilled, low side not fulfilled

Examples from the recorded data:
INSERT INTO assay_data (molecule_smiles, assigned_category) VALUES
  ('OCCN1C[C@H](O)[C@@H](O)[C@H](O)[C@H]1CO', 'not fulfilled'),
  ('OC[C@@]12CCCN1C[C@H](O)[C@@H](O)[C@@H]2O', 'not fulfilled'),
  ('O=C1CC[C@]2(CO)[C@@H](O)[C@H](O)[C@@H](O)CN12', 'fulfilled'),
  ('O=C1CC[C@@]2(CO)[C@@H](O)[C@H](O)[C@H](O)CN12', 'fulfilled'),
  ('O=C1CC[C@@]2(COCc3ccccc3)[C@@H](O)[C@H](O)[C@H](O)CN12', 'not fulfilled'),
  ('O=C1CC[C@@]2(CO)[C@@H](O)[C@H](O)[C@@H](O)CN12', 'fulfilled');

Next compound, please.
// query Dear colleague, could you confirm whether OC[C@@]12CCCN1C[C@@H](O)[C@@H](O)[C@@H]2O has pIC50 at or above 4?
// result not fulfilled

###

assay_info: Inhibition of rice alpha-glucosidase using 10 mM p-nitrophenyl-alpha-D-glucopyranoside as substrate
Parameters: species or system Oryza sativa
readout: Ki (nM)
# value in nM; strip the unit string

// query Look up Ki of OCCN1C[C@H](O)[C@@H](O)[C@H](O)[C@H]1CO [MIGLITOL] and report it.
// result 60

###

Entries and their IC50 values follow.
target_of_assay: Beta-galactosidase (Bos taurus)
Sequence (Q58D55 whole entry): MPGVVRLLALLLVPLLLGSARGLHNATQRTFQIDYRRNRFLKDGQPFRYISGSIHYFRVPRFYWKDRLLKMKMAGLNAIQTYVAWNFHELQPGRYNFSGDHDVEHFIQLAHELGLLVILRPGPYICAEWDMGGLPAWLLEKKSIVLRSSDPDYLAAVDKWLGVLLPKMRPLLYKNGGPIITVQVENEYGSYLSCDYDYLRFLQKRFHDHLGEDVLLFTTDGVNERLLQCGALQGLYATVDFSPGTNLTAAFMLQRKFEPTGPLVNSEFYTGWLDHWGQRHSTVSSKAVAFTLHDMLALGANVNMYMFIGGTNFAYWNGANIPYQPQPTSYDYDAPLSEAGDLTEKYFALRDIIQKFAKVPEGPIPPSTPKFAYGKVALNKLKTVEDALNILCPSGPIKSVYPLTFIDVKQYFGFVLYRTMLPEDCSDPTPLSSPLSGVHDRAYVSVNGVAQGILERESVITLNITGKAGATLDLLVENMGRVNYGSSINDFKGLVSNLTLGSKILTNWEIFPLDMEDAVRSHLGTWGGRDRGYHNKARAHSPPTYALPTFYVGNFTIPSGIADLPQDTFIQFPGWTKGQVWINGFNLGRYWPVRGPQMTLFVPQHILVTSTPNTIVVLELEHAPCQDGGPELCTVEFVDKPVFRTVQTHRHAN
Please state the number and follow it with the unit.

INSERT INTO results (compound, readout, test_result) VALUES
  ('OCCN1C[C@H](O)[C@@H](O)[C@H](O)[C@H]1CO [MIGLITOL]', 'IC50', '200000 nM');

// query Assign IC50 to the following record: OC[C@@]12CCCN1C[C@@H](O)[C@@H](O)[C@@H]2O
// result 1200 nM

// query Please supply the value of reported IC50 for the item OC[C@]12CCCN1C[C@H](O)[C@@H](O)[C@@H]2O
// result 3600 nM

// query Answer with the recorded IC50 for the compound listed here: O=C1CC[C@]2(CO)[C@@H](O)[C@H](O)[C@@H](O)CN12
// result 800 nM

// query Give the reported value of IC50 for this record: OC[C@@]12CCCN1C[C@H](O)[C@@H](O)[C@@H]2O
// result 2300 nM
